- ASSAY_DETAILS: Distribution coefficient
- Type: physicochemical
- PARTICULARS: octanol/citrate buffer, pH 3
PROPERTY_LABEL: logD at 24 h
Lab note: jot the number down without any unit.

Return reported logD at 24 h. Input compound: C/C=C(/C)C(=O)O[C@H]1C(C)=C[C@]23C(=O)[C@@H](C=C(CO)[C@@H](O)[C@]12O)[C@H]1[C@@H](C[C@H]3C)C1(C)C [Ingenol mebutate, Ingenol 3-Angelate]
3.5
